species on record: Mus musculus; experiment: Compound was tested in vitro for immunosuppressive activity which was measured in the mouse mixed lymphocyte reaction; assay type: functional
pIC50: −log10 of the molar value.
endpoint.label: pIC50

| chem.smiles | endpoint.label | numeric.readout |
| --- | --- | --- |
| CC(=O)/C(C#N)=C(/S)Nc1ccc(C(F)(F)F)cc1 | pIC50 | 4.96 |

P = C/C(O)=C(/C#N)C(=O)Nc1ccc(C(F)(F)F)cc1
Q = Cc1oncc1C(=S)Nc1ccc(C(F)(F)F)cc1
I need your help: which of the pair P , Q has higher pIC50? API: response body contains the label of the selected item.
P
